# credit: ChEMBL document CHEMBL4513216

Tested on: Plasmodium berghei
Assay: Screen against P. berghei liver stage (PbLuc), transformed with Luciferase, at 10uM
Type: functional, HepG2
Conditions: tested at 10 uM
The campaign covered roughly 69,000 compounds. About 8,600 (12%) showed an effect of 50% or more. The entries come from a sample that favours strong results as a whole.
Category key, based on recorded INHIBITION: LOW: < 10%; MEDIUM: ≥ 10% and < 40%; HIGH: ≥ 40%

Consider the following illustrative entries.
CN(C)c1ccc(CN2CCC(C(O)Cc3ccccc3)CC2)cn1 (configuration not stated)
LOW
Cc1cccc(OC2CN(C(=O)C3CC(=O)N(C(C)(C)C)C3)C2)c1 (configuration not stated)
MEDIUM
CCc1nnc2n1CCN(Cc1ncc(-c3ccccc3)o1)C2
LOW
CCc1noc(CN(CC)Cc2cc3ccc(C)cc3[nH]c2=O)n1
LOW
O=c1c(S(=O)(=O)N2CCCC2)cccn1Cc1c(F)cccc1Cl
LOW

Ask: Class (by measured INHIBITION) for COc1cccc2c(=O)n(C3CCCNC3)cnc12 (configuration not stated)
Reply: HIGH

Ask: Class (by measured INHIBITION) for CC(C)CC(O)C1CCN(Cc2ccc(N(C)C)nc2)CC1 (configuration not stated)
Reply: MEDIUM

Ask: Class (by measured INHIBITION) for CSCc1ccc(N2CCC(C(O)CC(C)C)CC2)nc1 (configuration not stated)
Reply: HIGH
